Test system: OVCAR-5 ovarian
Assay: NCI-60 one-dose screen, 48 h (100 = growth as untreated, 0 = no growth, -100 = all killed)
Conditions: 10 µM unless noted
About 83,000 compounds went through this panel and 20% of them were active in at least one assay; those are over-represented in the sample as a whole. Active and inactive are the calls of the source. The calls were made as follows: active = growth percent below 10; inactive = the rest.
VALUE_KIND: growth

>>> observed_value("CCN(CC)c1ccc2nc3ccc(N=Nc4ccc(N(C)C)cc4)cc3[n+](-c3ccccc3)c2c1")
"-58.2% (active)"
>>> observed_value("O=C(Nc1cccc(Cl)c1)c1ccc(Cl)cc1Cl")
"95.8% (inactive)"
>>> observed_value("C1CCc2onc(-c3noc4c3CCCCC4)c2CC1")
"103% (inactive)"
>>> observed_value("O=Cc1ccc(Cl)c(Cl)c1")
"99.8% (inactive)"
>>> observed_value("Cc1cc(CO)c(O)c(CO)c1")
"101% (inactive)"
>>> observed_value("O=c1cc(Cl)nc2ccccn12")
"101% (inactive)"

# lookup: growth of N#C/C(=C\c1ccc2c(c1)OCO2)c1ccccc1
79.6% (inactive)

# lookup: growth of O=C(OC1CCCC1)c1ccccc1Cl
96.2% (inactive)

----------
Listing of recorded growth by entry.
Test system: NCI/ADR-RES ovarian
Experiment: NCI-60 one-dose screen, 48 h (100 = growth as untreated, 0 = no growth, -100 = all killed)
Details: 10 µM unless noted
The panel holds about 83,000 compounds, 20% with a hit somewhere; the sample as a whole holds those more often.
The response must be a number in % with no trailing unit.

The cases that follow already have their growth on record.
>>> observed_value("C#CC(O)c1ccccc1 (stereo not drawn)")
107
>>> observed_value("COc1ccc(C2CCCCC2=O)cc1 (stereo not drawn)")
108
>>> observed_value("CCN(Cc1ccc(Cl)c(Cl)c1)c1ccc2nc(N)nc(N)c2c1C")
-94.4
>>> observed_value("Cc1c(Cl)cccc1N=C=S")
89.3
>>> observed_value("Nc1ccccc1SC1CC(=O)N(c2ccc(Cl)c(Cl)c2)C1=O (stereo not drawn)")
95.7

# lookup: growth of COc1ccc(/C=C\C(=O)/C=C/c2ccc(OC)cc2)cc1
99.2

# lookup: growth of CN(C)c1ncnc2c1cnn2C
99.9

# lookup: growth of CSc1cnc2ccccc2n1
103

----------
Listing of recorded growth by entry.
Test system: HOP-92 NSCLC
Assay: NCI-60 one-dose screen, 48 h (100 = growth as untreated, 0 = no growth, -100 = all killed)
Details: 10 µM unless noted
The panel holds about 83,000 compounds, 20% with a hit somewhere; the sample as a whole holds those more often. Active and inactive are the calls of the source. Rule for the calls: active = growth percent below 10; inactive = the rest.

The cases that follow already have their growth on record.
>>> observed_value("CC(c1ccccc1)N1C(=O)CSC1=S (centres undefined)")
"47.5% (inactive)"
>>> observed_value("O=C1CSc2ccccc2N1")
"83.9% (inactive)"
>>> observed_value("C=C(OC(C)=O)c1ccccc1")
"87.5% (inactive)"

# lookup: growth of Cc1ccc(N)c(S(=O)(=O)O)c1
112% (inactive)

# lookup: growth of C1=NCCc2ccccc21
92.1% (inactive)

# lookup: growth of CC(=O)Nc1ccc(C(=O)c2ccc(S(=O)(=O)Nc3ccccc3)cc2)cc1
74.2% (inactive)

# lookup: growth of O=C(NCc1ccco1)Nc1cccc2c(NC(=O)NCc3ccco3)cccc12
124% [100 µM] (inactive)

# lookup: growth of CN(CCCN(C)CCC1CCCCC1)CCC1CCCCC1
21.3% (inactive)

# lookup: growth of C=CCN1CCCC1=O
99.6% (inactive)

# lookup: growth of COC1OC(CO)C(OC)C(O)C1O (centres undefined)
111% (inactive)

# lookup: growth of Cc1onc(-c2ccccc2Cl)c1C(=O)Cl
77% (inactive)

# lookup: growth of CCN(C(C)=O)c1ccc([N+](=O)[O-])cc1
98.7% (inactive)

# lookup: growth of C=CCc1cc(OC)c(O)c(OC)c1
105% (inactive)

# lookup: growth of CS(=O)CC(=N\O)/C(CS(C)=O)=N\O (centres undefined)
105% (inactive)

----------
Tested on: BT-549 breast
Assay: NCI-60 one-dose screen, 48 h (100 = growth as untreated, 0 = no growth, -100 = all killed)
Conditions: 10 µM unless noted
Compounds without any hit were thinned out: in the full panel of roughly 83,000, 20% have a hit. Calls of active or inactive are those of the source. The calls were made as follows: active = growth percent below 10; inactive = the rest.
VALUE_KIND: growth

The cases that follow already have their growth on record.
>>> observed_value("C=COC(=O)C(C)(C)C")
"89% (inactive)"
>>> observed_value("CC1(C)C2CCC1(C)C1(C2)OCCS1 (stereo not drawn)")
"88.3% (inactive)"
>>> observed_value("CC(CC(CCC(=O)O)(c1ccccc1)c1ccccc1)N(C)C (stereo not drawn)")
"68.1% (inactive)"
>>> observed_value("CC(C)C(C)(C)C(=O)C(C)(C)C(C)(C)C")
"82% (inactive)"
>>> observed_value("O=CNCCc1ccccc1")
"96.5% (inactive)"
>>> observed_value("CN1CCN(C(=S)S)CC1")
"108% (inactive)"
>>> observed_value("CC(=O)OCC1CCC(COC(C)=O)CC1 (stereo not drawn)")
"112% (inactive)"
>>> observed_value("Oc1ccc(CCC2CCNc3ccccc32)cc1 (stereo not drawn)")
"47.2% (inactive)"

# lookup: growth of CCN(CC)CCOC(=O)Nc1c(C(C)C)cccc1C(C)C
117% (inactive)

# lookup: growth of C=C(C)[C@@H]1CC[C@]2(CO)CC[C@]3(C)[C@H](CC[C@@H]4[C@@]5(C)CC[C@H](O)C(C)(C)[C@@H]5CC[C@]43C)[C@@H]12
49.3% (inactive)

# lookup: growth of CCCCCCCCCCCCSC1=C(Cl)C(=O)C(OC)=C(OC)C1=O
58.3% (inactive)

# lookup: growth of CCN1CCCC(N2c3ccccc3Sc3ccccc32)C1 (stereo not drawn)
116% (inactive)

# lookup: growth of COc1cccc(N=CNc2cccc(OC)c2)c1
101% (inactive)

# lookup: growth of CC(c1ccccc1)N(C)C (stereo not drawn)
101% (inactive)

----------
Listing of recorded growth by entry.
Test system: MDA-MB-435 melanoma
Assay: NCI-60 one-dose screen, 48 h (100 = growth as untreated, 0 = no growth, -100 = all killed)
Conditions: 10 µM unless noted
This is part of a sample that, as a whole, favours compounds with a hit. Of some 83,000 tested, about 20% had one in any assay. Activity calls are given as the source filed them. How the source made its calls: active means growth percent below 10; inactive means the rest.

The cases that follow already have their growth on record.
>>> observed_value("CC1CC(C)S(=O)(=O)C1 (stereo not drawn)")
"106% (inactive)"
>>> observed_value("O=C(O)CSCC(=O)Nc1cc(C(F)(F)F)ccc1Cl")
"111% (inactive)"
>>> observed_value("Cc1ccc(C)c(CN(C)C)c1O")
"109% (inactive)"
>>> observed_value("CC(C)C1CCC(C)C(O)C1 (stereo not drawn)")
"93.5% (inactive)"
>>> observed_value("CCOC(=O)CNC(=O)Sc1ccc(C(C)(C)C)cc1")
"88.3% (inactive)"

Record CCOC(=O)CSCCC#N : what is its growth with MDA-MB-435 melanoma?
106% (inactive)

Record Cc1ccc(S(N)(=O)=O)cc1Cl : what is its growth with MDA-MB-435 melanoma?
114% (inactive)

Record COc1ccc2c(c1)Nc1ccccc1S2 : what is its growth with MDA-MB-435 melanoma?
112% (inactive)

----------
System: COLO 205 colon
Test: NCI-60 one-dose screen, 48 h
Conditions: 10 µM unless noted
Method: Cells are grown in 96 well plates and exposed to the test compound for 48 hours. Compounds are tested at a single concentration, which is 10^-5 M for most compounds. The reported endpoint is percent growth (GI% or GIPRCNT), where numbers from 0 - 100% represent growth inhibition, and numbers from -100% - 0 represent cell death. For example, a value of 40 represents 60% growth inhibition. A value of 0 means no net growth occurred over the course of the experiment. […]
This is part of a sample that, as a whole, favours compounds with a hit. Of some 83,000 tested, about 20% had one in any assay. Calls of active or inactive are those of the source. Rule for the calls: active = growth percent below 10; inactive = the rest.
A correct response names exactly one class from Yes (active), No (inactive)

Below, 3 compounds whose answers are already recorded.
>>> label_value("C/C(=N\\N=C(/C)c1cccc([N+](=O)[O-])c1)c1cccc([N+](=O)[O-])c1")
"No"
>>> label_value("O=C1C=Cc2ccccc2/C1=C/c1[nH]c(=O)[nH]c1O")
"No"
>>> label_value("Cc1cc2nc(C)c(C)nc2cc1C")
"No"

Each compound tested received a call. Report the one for ON1CCCC1 .
No

Each compound tested received a call. Report the one for Cc1ccc(S(=O)(=O)Oc2ccc3sc4c(CO)ccc(NCCN(C)C)c4c(=O)c3c2)cc1 .
Yes

Each compound tested received a call. Report the one for Oc1ccc(N=Cc2ccc(OCc3ccccc3)cc2)cc1 .
No

Each compound tested received a call. Report the one for Cc1onc(-c2c(F)cccc2Cl)c1-c1ncc(-c2ccc(Br)cc2)o1 .
No

Each compound tested received a call. Report the one for CC(=O)N(C)N=Nc1ccc(C)cc1 .
No
